test system: Fibroblast; assay: Multiplex assay against human fibroblast; format: toxicity, cell-based; conditions: 12 h, 1 µM, compound concentration 1 uM, replicate 2
measured-parameter: Population Normal (%)

In [3]: df
Out[3]:
                                   compound      system     measured_parameter  test_value
0  CC[C@H](Nc1ncnc2[nH]cnc12)c1nc2cccc(F)c2c(=O)n1-c1ccccc1  Fibroblast  Population Normal (%)          69
1  CC(/C=C1\SC(=S)N(CCCC(=O)Nc2ccc(C(=O)O)c(O)c2)C1=O)=C\c1ccccc1  Fibroblast  Population Normal (%)          93
2  CCOC(=O)CCNc1cc(N2CCc3ccccc3CC2)nc(-c2ccccn2)n1  Fibroblast  Population Normal (%)          66
3  CCOc1ccn(-c2ccc(F)cc2)c(=O)c1C(=O)Nc1ccc(Oc2ccnc(N)c2Cl)c(F)c1  Fibroblast  Population Normal (%)          70
4  Cc1c(P(=S)(c2ccccc2)c2ccccc2)n2ccccc2[n+]1C/C=C/c1ccccc1.[Br-]  Fibroblast  Population Normal (%)          77
5  Cc1c(Nc2ccc(S(=O)(=O)N3CCN(C)CC3)cc2F)nc2ccc(-c3cnn(C4CC4)c3)cn2c1=O  Fibroblast  Population Normal (%)          75
6  Cc1ccc(S(=O)(=O)NC2c3ccccc3Oc3ccccc32)cc1  Fibroblast  Population Normal (%)          95
7  CCCCCNC(=N)N/N=C/c1c[nH]c2ccc(OC)cc12.O=C(O)/C=C\C(=O)O [TEGASEROD MALEATE]  Fibroblast  Population Normal (%)          96
